# Tested on: 997726-040-R-J2-PDC tumor spheroids, viability;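 also: spheroids exposed to compounds for seven days before readout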
# protocolDescription: Anticancer human tumor 997726-040-R-J2-PDC patient-derived squamous cell lung carcinoma cell line growth inhibition [PI3K]
# assayConditions: curve of first compound; second compound 0.01 µM; spheroids with HUVEC and MSC
resultType: IC50

[Q] Give the measured IC50 of CC1(C)CCC(Nc2ncc(C(F)(F)F)c(-c3c[nH]c4c(P(C)(C)=O)c(C#N)ccc34)n2)CN1 (configuration not stated) + CC(Nc1ccc2c(c1)OCCn1cc(N3C(=O)OCC3C(F)F)nc1-2)C(N)=O .
[A] < 0.0316 µM

[Q] Give the measured IC50 of Cn1cnc2c(F)c(Nc3ccc(Br)cc3Cl)c(C(=O)NOCCO)cc21 + COc1c(OCCCN2CCOCC2)ccc2c3n(c(=NC(=O)c4cnc(N)nc4)nc12)CCN3 .
[A] < 0.00949 µM

[Q] Give the measured IC50 of Cn1ncc(Cl)c1-c1cc(C(=O)NC(CN)Cc2cccc(F)c2)sc1Cl (configuration not stated) + COc1c(OCCCN2CCOCC2)ccc2c3n(c(=NC(=O)c4cnc(N)nc4)nc12)CCN3 .
[A] < 0.0316 µM

[Q] Give the measured IC50 of CC(=O)c1c(C)c2cnc(Nc3ccc(N4CCNCC4)cn3)nc2n(C2CCCC2)c1=O + CC(Nc1ccc2c(c1)OCCn1cc(N3C(=O)OCC3C(F)F)nc1-2)C(N)=O .
[A] > 0.1 µM

[Q] Give the measured IC50 of C[C@@H](NC(=O)c1ncnc(N)c1Cl)c1ncc(C(=O)Nc2cc(C(F)(F)F)c(Cl)cn2)s1 + COc1c(OCCCN2CCOCC2)ccc2c3n(c(=NC(=O)c4cnc(N)nc4)nc12)CCN3 .
[A] > 10 µM

[Q] Give the measured IC50 of C#Cc1c(F)ccc2cc(O)cc(-c3ncc4c(N5CC6CCC(C5)N6)nc(OCC56CCCN5CC(F)C6)nc4c3F)c12 (configuration not stated) + CC(Nc1ccc2c(c1)OCCn1cc(N3C(=O)OCC3C(F)F)nc1-2)C(N)=O .
[A] > 10 µM

[Q] Give the measured IC50 of Cn1ncnc1[C@H]1c2n[nH]c(=O)c3cc(F)cc(c23)N[C@@H]1c1ccc(F)cc1 + COc1c(OCCCN2CCOCC2)ccc2c3n(c(=NC(=O)c4cnc(N)nc4)nc12)CCN3 .
[A] > 0.1 µM

Data provenance is PubChem BioAssay AID1963964.
